System name: E. coli topoisomerase IV (Escherichia coli, UniProt P0AFI2+P20083)
Construct: made in house; host or cells: E. coli overexpressing strains
Sequence (P0AFI2 whole entry): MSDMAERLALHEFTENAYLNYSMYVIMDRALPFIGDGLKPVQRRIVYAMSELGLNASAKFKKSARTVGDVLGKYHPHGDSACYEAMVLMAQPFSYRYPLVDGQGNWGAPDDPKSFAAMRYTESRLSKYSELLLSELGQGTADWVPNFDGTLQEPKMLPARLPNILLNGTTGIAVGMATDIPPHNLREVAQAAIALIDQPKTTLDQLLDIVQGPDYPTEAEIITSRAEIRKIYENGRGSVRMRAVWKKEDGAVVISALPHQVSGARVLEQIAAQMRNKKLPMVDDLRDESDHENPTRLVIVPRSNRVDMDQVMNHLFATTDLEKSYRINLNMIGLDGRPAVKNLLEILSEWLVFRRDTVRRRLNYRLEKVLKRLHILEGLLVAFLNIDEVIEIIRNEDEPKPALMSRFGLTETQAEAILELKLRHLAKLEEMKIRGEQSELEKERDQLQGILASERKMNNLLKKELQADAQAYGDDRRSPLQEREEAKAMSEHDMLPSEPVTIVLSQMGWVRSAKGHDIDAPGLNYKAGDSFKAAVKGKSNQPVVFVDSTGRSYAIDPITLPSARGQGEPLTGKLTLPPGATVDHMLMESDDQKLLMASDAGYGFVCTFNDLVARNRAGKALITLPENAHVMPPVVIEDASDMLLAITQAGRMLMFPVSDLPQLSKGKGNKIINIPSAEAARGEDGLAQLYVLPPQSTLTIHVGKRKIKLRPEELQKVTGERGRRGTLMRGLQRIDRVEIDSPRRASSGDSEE
Sequence (P20083 whole entry): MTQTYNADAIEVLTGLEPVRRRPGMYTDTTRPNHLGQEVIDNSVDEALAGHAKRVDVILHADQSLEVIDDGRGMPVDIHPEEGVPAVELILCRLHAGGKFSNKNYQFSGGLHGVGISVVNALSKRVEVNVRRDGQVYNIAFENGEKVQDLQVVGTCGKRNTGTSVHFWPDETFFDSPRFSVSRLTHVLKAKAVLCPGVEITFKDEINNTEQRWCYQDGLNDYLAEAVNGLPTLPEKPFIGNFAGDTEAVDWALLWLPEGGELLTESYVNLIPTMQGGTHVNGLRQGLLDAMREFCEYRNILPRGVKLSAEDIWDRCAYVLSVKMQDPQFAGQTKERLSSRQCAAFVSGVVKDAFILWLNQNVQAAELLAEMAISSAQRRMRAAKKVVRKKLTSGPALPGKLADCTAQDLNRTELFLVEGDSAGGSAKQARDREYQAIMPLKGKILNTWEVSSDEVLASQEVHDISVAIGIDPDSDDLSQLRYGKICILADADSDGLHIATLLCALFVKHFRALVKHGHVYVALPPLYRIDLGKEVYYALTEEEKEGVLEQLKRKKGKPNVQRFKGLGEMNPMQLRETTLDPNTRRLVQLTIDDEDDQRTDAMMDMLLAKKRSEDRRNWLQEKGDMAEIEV
Test details: Topoisomerase IV k-DNA decatenation assay
Type: biochemical
Test parameters: k-DNA decatenation, 10 minutes at 37° C.; read-out: Top IV IC50
Label t when IC50 < 30 µM; otherwise f.

Record excerpt, results attached:
[
  {
    "Compound": "Nc1cc2c3c(cccc3c1Cl)C(=O)N(O)C2=O [Example 28]",
    "Class assignment": "t"
  },
  {
    "Compound": "O=C1c2cccc3c(Cl)c(Cl)cc(c23)C(=O)N1O [Example 103]",
    "Class assignment": "t"
  },
  {
    "Compound": "Nc1c(Br)cc2c3c(cccc13)C(=O)N(O)C2=O [Example 26]",
    "Class assignment": "t"
  },
  {
    "Compound": "CN1CCN(c2c(Br)cc3c4c(cccc24)C(=O)N(O)C3=O)CC1 [Example 50]",
    "Class assignment": "f"
  },
  {
    "Compound": "Nc1cc2c3c(cccc3c1)C(=O)N(O)C2=O [Example 8]",
    "Class assignment": "f"
  }
]

# evaluate next
IC50 strictly < 30 µM for this compound? COc1cc2c3c(cccc3c1)C(=O)N(O)C2=O [Example 13]
t
